Measured Kd accompanies every entry in the list below.
target: T1, Histidine-tagged human 4-1BB protein (h4-1BB-His) (human, UniProt Q07011 24-186); experiment: SPR (Biacore T200), antibody on Protein A chip, h4-1BB-His injected;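 further: dissociation phase followed for 300 s, Kd derived as koff divided by kon from the kinetic fit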
T1 construct: not shown: histidine tag
Quick reminder: number only, in nM, skip the unit.

- binder: "45-7E9-mHvKv-IgG2 (antibody, V domains shown) VH: QVQLKQSGPGLVQPSQSLSITCTVSGFSLTTYGVHWVRQPPGKGLEWLGVIWSDGNTDYNDAFISRLSITKDNSTSQVFFKMNGLQADDTAIYYCARNSITSVSFDCWGQGTTLTVSS VL: DIVMTQSQKFMSTSVGDRVSVTCKASQNVGTTVAWYQQRPGQSPKALICSASYRYSGVPDRFTGSGSGTDFTLTISNVQSEDLAEYFCQQYNSYPLTFGSGTKLEIK"
  Kd (nM): 15.3

Shift focus to the following entry.
Prompt: If you can, please state the reported Kd value of 1C4-H2K1-IgG4 (antibody, V domains shown, humanized) VH: QVQMVQSGAEVKKPGASVKLSCKASGFTFSSSYINWLRQAPGQSLEWIGWIFAGTGGTYYNQKFTGRVQITRDTSASTAYMELSSLRSEDTAIYYCARHSPRATLFDFWGQGTTLTVSS VL: EIVLTQSPATLSLSPGERATLSCRASSSVNHMHWYQQKPGQAPRALIYATSNLASGIPARFSGSGSGTSFTLTISSLEPEDFAVYYCQQWSSNPYTFGGGTKLEIK .
Completion: 19.4
